system: 186277-243-T-J2-PDC complex spheroids, viability; experiment: Anticancer human tumor 186277-243-T-J2-PDC patient-derived colon adenocarcinoma cell line growth inhibition [RAS]; settings: curve of first compound; second compound 0.0949 µM;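 also: spheroids exposed to compounds for 7 days before viability read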
Recorded Endpoint: IC50 (nM)

[[record]]
compound = "C[C@@H](NC(=O)c1ncnc(N)c1Cl)c1ncc(C(=O)Nc2cc(C(F)(F)F)c(Cl)cn2)s1 + CCn1c(-c2cccnc2C(C)OC)c2c3cc(ccc31)N1CCOC(CC(NC(=O)C(C(C)C)N(C)C(=O)C3(F)CCN(C(=O)C#CC(C)(C)N(C)C)CC3)C(=O)N3CCCC(N3)C(=O)OCC(C)(C)C2)C1"
value_relation_sign = ">"
observed_value = 10000

[[record]]
compound = "CCN1CCN(Cc2ccc(Nc3ncc(F)c(-c4cc(F)c5nc(C)n(C(C)C)c5c4)n3)nc2)CC1 + CCn1c(-c2cccnc2C(C)OC)c2c3cc(ccc31)N1CCOC(CC(NC(=O)C(C(C)C)N(C)C(=O)C3(F)CCN(C(=O)C#CC(C)(C)N(C)C)CC3)C(=O)N3CCCC(N3)C(=O)OCC(C)(C)C2)C1"
value_relation_sign = ">"
observed_value = 1000

[[record]]
compound = "CC(=O)OC12COC1CC(O)C1(C)C(=O)C(O)C3=C(C)C(OC(=O)C(O)C(NC(=O)OC(C)(C)C)c4ccccc4)CC(O)(C(OC(=O)c4ccccc4)C21)C3(C)C (configuration not stated) + CCn1c(-c2cc(N3CCN(C)CC3)cnc2C(C)OC)c2c3cc(ccc31)-c1csc(n1)CC(NC(=O)C1CC1C)C(=O)N1CCCC(N1)C(=O)OCC(C)(C)C2"
value_relation_sign = "<"
observed_value = 31.6

[[record]]
compound = "CC(C)NCC(C(=O)N1CCN(c2ncnc3c2C(C)CC3O)CC1)c1ccc(Cl)cc1 (configuration not stated) + CCn1c(-c2cccnc2C(C)OC)c2c3cc(ccc31)N1CCOC(CC(NC(=O)C(C(C)C)N(C)C(=O)C3(F)CCN(C(=O)C#CC(C)(C)N(C)C)CC3)C(=O)N3CCCC(N3)C(=O)OCC(C)(C)C2)C1"
value_relation_sign = "="
observed_value = 726

[[record]]
compound = "CCC(CC)c1cc(NC2CCC(N)C2)n2nccc2n1 (configuration not stated) + CCn1c(-c2cc(N3CCN(C)CC3)cnc2C(C)OC)c2c3cc(ccc31)-c1csc(n1)CC(NC(=O)C1CC1C)C(=O)N1CCCC(N1)C(=O)OCC(C)(C)C2"
value_relation_sign = "<"
observed_value = 31.6

[[record]]
compound = "CC1(C)CCC(Nc2ncc(C(F)(F)F)c(-c3c[nH]c4c(P(C)(C)=O)c(C#N)ccc34)n2)CN1 (configuration not stated) + CCn1c(-c2cccnc2C(C)OC)c2c3cc(ccc31)N1CCOC(CC(NC(=O)C(C(C)C)N(C)C(=O)C3(F)CCN(C(=O)C#CC(C)(C)N(C)C)CC3)C(=O)N3CCCC(N3)C(=O)OCC(C)(C)C2)C1"
value_relation_sign = "="
observed_value = 135

[[record]]
compound = "CC(C)n1nc(-c2ccc3oc(N)nc3c2)c2c(N)ncnc21 + CCn1c(-c2cccnc2C(C)OC)c2c3cc(ccc31)N1CCOC(CC(NC(=O)C(C(C)C)N(C)C(=O)C3(F)CCN(C(=O)C#CC(C)(C)N(C)C)CC3)C(=O)N3CCCC(N3)C(=O)OCC(C)(C)C2)C1"
value_relation_sign = "="
observed_value = 41.2

